Target: Indoleamine 2,3-dioxygenase 1 (Homo sapiens)
Sequence (P14902 whole entry, looked up): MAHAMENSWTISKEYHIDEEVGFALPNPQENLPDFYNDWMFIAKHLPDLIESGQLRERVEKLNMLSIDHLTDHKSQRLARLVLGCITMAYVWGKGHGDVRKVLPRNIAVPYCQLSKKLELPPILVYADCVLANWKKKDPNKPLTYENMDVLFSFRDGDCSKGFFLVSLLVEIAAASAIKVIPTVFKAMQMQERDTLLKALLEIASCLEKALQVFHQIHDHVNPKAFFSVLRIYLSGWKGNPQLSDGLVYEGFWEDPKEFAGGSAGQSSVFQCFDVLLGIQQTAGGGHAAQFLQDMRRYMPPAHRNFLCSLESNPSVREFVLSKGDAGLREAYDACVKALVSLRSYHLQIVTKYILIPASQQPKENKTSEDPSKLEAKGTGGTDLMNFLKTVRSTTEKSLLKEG
Test: Inhibition of human IDO1 in HEK293 cells at 10 uM relative to control
Type: cell-based
Observable: inhibition (%)

Record excerpt, results attached:
CCC(=O)N1CCc2cc(CNC(=O)c3ccccc3)ccc21
87
CC(C)CC(=O)N1CCc2cc(CNC(=O)c3cccs3)ccc21
100
CCC(=O)N1CCc2cc(CNC(=O)c3cccc(F)c3)ccc21
82
CCC(=O)N1CCc2cc(CNC(=O)c3ccc(F)cc3)ccc21
96

[a] CC(C)C(=O)N1CCc2cc(CNC(=O)c3ccc(F)cc3)ccc21
[b] CCC(=O)NCc1ccc2c(c1)CCN2C(=O)c1ccccc1
Query: Could you tell me which of a and b has the lower inhibition reading? API: response body contains the label of the selected item.
Response: b
(b: 41%, a: 88%)
